Test system: OVCAR-4
Assay: NCI tumour cell line growth inhibition, 48 h
The source made the active and inactive calls. Cut-off read from the data, not from the text of the source: active = GI50 up to about 1.1 µM and inactive = higher.
# valid calls are active, inactive; nothing else

Data request: Called result for O=[N+]([O-])c1ccc(NC2OCC(O)C(O)C2O)cc1 (stereo not drawn)
Data returned: inactive

Data request: Lab log entry: CCOC(=O)C1C(c2ccc(O)c(OC)c2)c2c(n[nH]c2O)CC1(C)O (stereo not drawn) — outcome as called in the assay?
Data returned: inactive

Data request: Each molecule tested received a call. Report the one for N=C1OC(c2c[nH]c3ccc(OCc4ccccc4)cc23)C(O)=C1O (stereo not drawn) .
Data returned: inactive

Data request: For this molecule, state the assay outcome: COc1ccc(C[N+]23C(CC[C@H]2c2ccccc2)CC[C@H]3c2ccccc2)cc1 (stereo partly drawn)
Data returned: inactive

Data request: Returns: the outcome recorded for `CS[C@]12C(=O)C[C@@]3(C)[C@@H](CC[C@]3(O)C(=O)CO)[C@@H]1CCC1=CC(=O)CC[C@@]12C` in this assay.
Data returned: inactive

Data request: Please let me know the test result on file for `CN(C)c1n/c(=N/Cc2ccccc2)ss1` .
Data returned: inactive

Data request: Please let me know the test result on file for `CCOC(=O)CC(=O)ON(C)C(C)=O` .
Data returned: inactive

Data request: Name the outcome recorded for `CC(=O)Oc1ccc2cc(Oc3cc(Cl)c(Cl)cc3Cl)c(=O)oc2c1` in the assay.
Data returned: inactive

Data request: Outcome logged for `COc1ccc(N(CC(=O)O)N=O)cc1` in this assay:
Data returned: inactive

Data request: What did this assay record as the result for `CN(C)CCS/C(=N\c1ccccc1)N1C=COC=C1` ?
Data returned: inactive

Data request: Would you mind telling me which call this test gave `C=CCNC(=S)N/N=C1\C(=O)N(CN2CCOCC2)c2ccc([N+](=O)[O-])cc21` ?
Data returned: inactive

Data request: In this assay, the call recorded for `O=[N+]([O-])c1cc(/C=N/C23CC4CC(CC(C4)C2)C3)ccc1Cl` was what?
Data returned: inactive

Data request: Test call, this molecule: Cc1ccc(CC(Cc2ccc(C)cc2C(=O)O)C(=O)O)cc1 (stereo not drawn)
Data returned: inactive

Data request: Hi, sorry to bother you, what did the test record for `C/C(=N\NC(=S)N1CCCCCCCCCCCC1)c1ccccn1` ?
Data returned: active

Data request: Recorded test call requested for `Cc1cc([N+](=O)[O-])ccc1Sc1c2ccccc2nc2ccccc12`
Data returned: inactive

Data request: Hi team, can someone confirm the assay call for `N#Cc1c(-c2ccc(Cl)cc2)c(C#N)c(=O)n(NS(=O)(=O)c2ccccc2)c1-c1ccccc1` ?
Data returned: inactive

Data request: So what was the verdict on `O=C1C(Br)=CC2(C=C1Br)CCNC1=C2C(=O)c2ncccc2C1=O` in this test?
Data returned: inactive

Data request: Name the outcome recorded for `Nc1ncc(Cc2nn3c(COc4ccc(Cl)cc4)nnc3s2)s1` in the assay.
Data returned: inactive

Data request: Record lookup: outcome of this test for `CC(=O)c1c(=O)n(-c2ccc(C)cc2)c(O)c2c(N)n[nH]c12` ?
Data returned: inactive

Data request: Which outcome did this test record for the molecule CCc1cn(C2CC(CO)C(CO)S2)c(=O)[nH]c1=O (stereo not drawn) ?
Data returned: inactive

Data request: Given CCOC(=O)C1(C)CCC(C(C(=O)O)C(=O)O)CC1=O (stereo not drawn) , state the outcome it received in this test.
Data returned: inactive

Data request: How did this test come out for `c1ccc(C(CCN2CC3CCC(CC3)C2)c2ccccc2)cc1` ?
Data returned: inactive

Data request: Test call, this molecule: `CCOC(=O)Cn1c(=O)ccn(COCCO)c1=O`
Data returned: inactive

Data request: Returns: the outcome recorded for CC1(c2cccc3c2C2(O)C=CC4(CCC32)OCCO4)OCCO1 (stereo not drawn) in this assay.
Data returned: inactive

Data request: Recorded test call requested for O=C1CCC(CCc2nc3ccccc3[nH]2)(c2ccccc2)C(=O)N1 (stereo not drawn)
Data returned: inactive

Data request: Dear all, I need the recorded test outcome for `CCOc1cc2c(cc1OC)c[n+](C)c1c3cc(OC)c(OC)cc3ccc21` , thank you.
Data returned: inactive

Data request: Write down the call the test reported for this molecule. Item: `c1ccc2sc(SCN(C3CCCCC3)C3CCCCC3)nc2c1`
Data returned: inactive

Data request: Entry CC1=C(/C=C/C(C)=C/C=C/C(C)=C/C(=O)OCC2OC(n3cc(F)c(=O)[nH]c3=O)CC2OC(=O)/C=C(C)/C=C/C=C(C)/C=C/C2=C(C)CCCC2(C)C)C(C)(C)CCC1 (stereo not drawn) : call = ?
Data returned: inactive

Data request: # outcome recorded in this test, key = N#CC(C(=N/NC(N)=S)/C(=N/NC(N)=S)C(C#N)c1ccc(Cl)cc1)c1ccc(Cl)cc1 (stereo not drawn)
Data returned: inactive

Data request: Any idea what this test logged for `[N-]=[N+]=Nc1cc(=O)n(-c2ccccc2)c2ccccc12` ?
Data returned: inactive

Data request: What did this assay record as the result for `O=C1/C(=C/c2cccc([N+](=O)[O-])c2)Cc2ccccc21` ?
Data returned: inactive

Data request: Each molecule tested received a call. Report the one for `O=C(O)c1ccccc1.[Ag]` .
Data returned: inactive

Data request: Field: outcome | Entry: `Cc1ccc(S(=O)(=O)N/N=C/C(Br)=C(/Br)C(=O)O)cc1`
Data returned: inactive

Data request: What outcome does the record of this test show for `CCOC(=O)NC(=O)c1c[nH]c(=O)[nH]c1=O` ?
Data returned: inactive

Data request: Called result for O=c1c2cc(Br)ccc2nc(-c2ccccc2)n1NCC1(O)OCC(O)C(O)C1O (stereo not drawn)
Data returned: inactive

Data request: Please indicate how the test categorized `O=C(O)CNc1ccc2c(c1)Cc1cc(Br)ccc1-2` .
Data returned: inactive

Data request: # fetch the recorded call for `CC(C)(C)c1cc([N+](=O)[O-])cc([N+](=O)[O-])c1O` here
Data returned: inactive

Data request: Recorded call for Cc1cc(=O)[nH]c2cc(NC(=O)C(C)NC(=O)C(C)NC(=O)C(C)NC(=O)OC(C)(C)C)ccc12 (stereo not drawn) ?
Data returned: inactive

Data request: Which result was noted for this molecule in the test: `COc1ccc(/C(=C\c2cc(OC)c(OC)c(OC)c2)C(=O)O)cc1`
Data returned: inactive

Data request: Please let me know the test result on file for `CC(=O)N/C(=C\c1cccc([N+](=O)[O-])c1)c1nc2ccc3c(c2[nH]1)C(=O)c1ccccc1C3=O` .
Data returned: inactive

Data request: How was COc1ccc(C(C#N)NC23CC4CC(CC(C4)C2)C3)cc1OC (stereo not drawn) classified in this test?
Data returned: inactive

Data request: Please let me know the test result on file for O=C(NC(CS)C(=O)O)c1c2ccccc2nc2ccccc12 (stereo not drawn) .
Data returned: inactive

Data request: Recorded call for `CCC1=NC(N/N=C/c2ccccc2O)=N/C1=C\c1ccccc1O` ?
Data returned: inactive

====

System: EKVX
Experiment: NCI tumour cell line growth inhibition, 48 h
Counter-ions that a name gives are not always drawn. Active and inactive are the calls of the source. No stated cut-off is given here; in the data, active = GI50 up to about 1.1 µM and inactive = higher.
The reply should be one of these categories: active, inactive

Data request: What is the recorded call for this compound in the test? `COC(=O)C1(C(=O)OC)CC2=C(S(=O)(=O)c3ccccc3)C[C@@H](C#N)[C@H]2C1`
Data returned: inactive

Data request: Dear colleague, could you share the recorded outcome for `COc1ccc(C(=O)O)c(Cc2ccc3ccccc3c2)c1` when you have a moment?
Data returned: inactive

Data request: What is the recorded call for this compound in the test? NC(Cc1ccc(N(CCCl)CCCl)cc1)C(=O)NC(CCC(=O)O)C(=O)O (stereo not given)
Data returned: inactive

Data request: Please indicate how the test categorized `COc1cccc2c1[C@H](OC)[C@]13O[C@@]1(C2=O)[C@H](O)[C@H](C)[C@@](O)(C(=O)[C@@H]1O[C@H]1C)[C@@H]3O` .
Data returned: active

Data request: What did this assay record as the result for `CC1=NN(c2nc(N)nc(CC#N)n2)C(C)(C)C1` ?
Data returned: inactive

Data request: Could you please tell me the result logged for `N#Cc1cccc(/C=N/N/C(N)=N/O)c1` in this assay?
Data returned: inactive

Data request: So what was the verdict on COc1ccc2c(c1)CC1c3c(ccc(OC)c3O)CC2N1C (stereo not given) in this test?
Data returned: inactive

Data request: Hi, do you know how O=C1OC(OC/C(Br)=C(\Br)COC2OC(=O)C(Cl)=C2Cl)C(Cl)=C1Cl (stereo not given) came out in this test?
Data returned: inactive

Data request: # lookup: test call for OC(CNc1ccccn1)c1ccccc1 (stereo not given) [PHENYRAMIDOL HYDROCHLORIDE]
Data returned: inactive

Data request: Tell me the assay call for `CC(=O)N/C(=C\c1cccc([N+](=O)[O-])c1)c1nc2ccc3c(c2[nH]1)C(=O)c1ccccc1C3=O` please.
Data returned: inactive
